Data provenance: the supplement of paper PMC9112550

system: Escherichia coli TOP10; assay: shrunken log2 fold change of peptide-encoding DNA abundance (4.5 h post-induction vs induction); higher = less antimicrobial activity (less host growth inhibition); conditions: time post-induction: 4.5 h; library: site-saturation at positions 5, 18, 19, 20
Output label 1 for shrunken log2 fold change not less than 0.002; output label 0 otherwise.

Some entries whose results are on file:
>>> assigned_category("RRIRDRPPRLPRPRPRPYDNPRP")
"label 0"
>>> assigned_category("RRIRARPPRLPRPRPRPIAPPRP")
"label 1"

Input line: Decide: shrunken log2 fold change of RRIRQRPPRLPRPRPRPECLPRP >= 0.002?
Output line: label 0

Input line: Tell me whether shrunken log2 fold change is at least 0.002 here: RRIRRRPPRLPRPRPRPDEIPRP
Output line: label 1

* * *

system: Escherichia coli TOP10; assay: shrunken log2 fold change of peptide-encoding DNA abundance (4.5 h post-induction vs induction); higher = less antimicrobial activity (less host growth inhibition); conditions: time post-induction: 4.5 h; library: site-saturation at positions 5, 18, 19, 20
Attribute Measured: shrunken log2 fold change
API doc: respond with a numeric literal and nothing else, no unit.

Below, each entry is followed by its recorded shrunken log2 fold change result.
>>> recorded_number("RRIRNRPPRLPRPRPRPFLKPRP")
-0.294
>>> recorded_number("RRIRHRPPRLPRPRPRPTTLPRP")
-0.301
>>> recorded_number("RRIRSRPPRLPRPRPRPNTEPRP")
0.121
>>> recorded_number("RRIRTRPPRLPRPRPRPSSKPRP")
-0.201
>>> recorded_number("RRIRIRPPRLPRPRPRPGWWPRP")
0.405
>>> recorded_number("RRIRFRPPRLPRPRPRPFDFPRP")
-0.692
>>> recorded_number("RRIRERPPRLPRPRPRPNKLPRP")
-0.596
>>> recorded_number("RRIRPRPPRLPRPRPRPTLHPRP")
0.0853
>>> recorded_number("RRIRYRPPRLPRPRPRPDSYPRP")
-0.0836
>>> recorded_number("RRIRRRPPRLPRPRPRPPWAPRP")
0.729

With those in mind, consider the next sequence.
Quick note, shrunken log2 fold change for RRIRTRPPRLPRPRPRPQELPRP landed at 0.0724

* * *

tested on: Escherichia coli TOP10; assay: shrunken log2 fold change of peptide-encoding DNA abundance (4.5 h post-induction vs induction); higher = less antimicrobial activity (less host growth inhibition); conditions: time post-induction: 4.5 h; library: site-saturation at positions 5, 18, 19, 20;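 note: peptides expressed intracellularly from a pBAD plasmid library in pooled LB shake-flask culture, induced with 0.3% L-arabinose, DNA abundance read by NGS, three biological replicates, DESeq2 with apeglm shrinkage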
Label scheme for shrunken log2 fold change: lower than -0.02 is F, -0.02 and above is T.

Would you please look over these solved cases?
>>> assigned_category("RRIRFRPPRLPRPRPRPKYMPRP")
"F"
>>> assigned_category("RRIRKRPPRLPRPRPRPTYYPRP")
"F"
>>> assigned_category("RRIRTRPPRLPRPRPRPCQFPRP")
"F"
>>> assigned_category("RRIRTRPPRLPRPRPRPNPSPRP")
"F"
>>> assigned_category("RRIRKRPPRLPRPRPRPDQPPRP")
"T"
>>> assigned_category("RRIRHRPPRLPRPRPRPMYAPRP")
"T"
>>> assigned_category("RRIRYRPPRLPRPRPRPIQAPRP")
"T"
>>> assigned_category("RRIRHRPPRLPRPRPRPAEDPRP")
"T"
>>> assigned_category("RRIRRRPPRLPRPRPRPGAAPRP")
"T"
>>> assigned_category("RRIRTRPPRLPRPRPRPKQPPRP")
"T"

Input line: Check this sequence for shrunken log2 fold change at or above -0.02: RRIRIRPPRLPRPRPRPAAMPRP
Output line: T

Input line: Is the recorded value of shrunken log2 fold change equal to or greater than -0.02 for this sequence? RRIRKRPPRLPRPRPRPYSLPRP
Output line: F

Input line: Threshold query (shrunken log2 fold change >= -0.02) on RRIRNRPPRLPRPRPRPYVYPRP
Output line: F

Input line: Check the entry RRIRGRPPRLPRPRPRPKLDPRP : does shrunken log2 fold change equal or exceed -0.02?
Output line: T

Input line: Item RRIRSRPPRLPRPRPRPEWFPRP with shrunken log2 fold change of -0.02 or above?
Output line: F

Input line: Item RRIRHRPPRLPRPRPRPSCVPRP with shrunken log2 fold change of -0.02 or above?
Output line: F

Input line: Reported shrunken log2 fold change reaches at least -0.02 for RRIRERPPRLPRPRPRPNIYPRP ?
Output line: F

Input line: Could you verify whether the entry RRIRARPPRLPRPRPRPMCYPRP shows shrunken log2 fold change of no less than -0.02?
Output line: F

Input line: Threshold query (shrunken log2 fold change >= -0.02) on RRIRIRPPRLPRPRPRPNPDPRP
Output line: F
